Experimental protocol: chemical genetic growth profiling, strain panel (AID 1159580);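 further: tested at 20 µM; growth read once vehicle control cultures reached saturation at 30 °C; 1 = growth at the plate median or of vehicle wells; lower values mean less growth of the strain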
Settings: S. cerevisiae deletion strains, growth OD, locus YDR101C, strain arx1, hits give low values
Out of some 5,500 compounds screened, about 2,000 (36%) were called active. Another 18% or so got no clear call; they are omitted. Some of the results follow.
Reported metric: normalized growth
Answers are plain numbers.

Sample answers from the record:
1. Cc1c(N(C)CS(=O)(=O)O)c(=O)n(-c2ccccc2)n1C
1.03
2. C[N+]1(C)C2CC[C@H]1CC(OC(=O)C(O)c1ccccc1)C2 (stereo partly drawn)
0.976

Next molecule, normalized growth to be filled in.
What does the data say about its normalized growth? Entry: O=c1n(CCCN2CCN(c3cccc(Cl)c3)CC2)nc2ccccn12
0.97
